- measured on: DNA-PK(h) (Homo sapiens, UniProt P78527)
- experiment notes: Evaluation of inhibitory activity against DNA-PK (HTRF kinase assay, GST-cMyc-p53 substrate)
- Assay type: biochemical
- cond: compound concentration 0.1 μM; read-out: EXP_VALUE(% Inhibition) DNA-PK(h) 0.1 μM
endpoint name: inhibition at 0.1 µM (%)

Example compounds with recorded inhibition at 0.1 µM:
In [3]: df
Out[3]:
                                   compound         endpoint_name  test_value
0  C[C@H](Nc1ncnc2[nH]ccc(=O)c12)c1c(Cl)c2cccc(-c3ccc(N(C)C)nc3)c2c(=O)n1-c1ccccc1  inhibition at 0.1 µM          95
1  C[C@H](Nc1ncnc2[nH]ccc(=O)c12)c1c(Cl)c2cccc(N3CCC4CCCCC4C3)c2c(=O)n1-c1ccccc1 (stereo partly drawn)  inhibition at 0.1 µM          12

I = C[C@H](Nc1ncnc2[nH]ccc(=O)c12)c1c(Cl)c2cccc(-c3cc(Cl)ccc3F)c2c(=O)n1-c1ccccc1
II = C[C@H](Nc1ncnc2[nH]ccc(=O)c12)c1c(Cl)c2cccc(-c3ccc[nH]3)c2c(=O)n1-c1ccccc1
III = C[C@H](Nc1ncnc2[nH]ccc(=O)c12)c1c(Cl)c2cccc(NC3CC3)c2c(=O)n1-c1ccccc1
Rank by inhibition at 0.1 µM (largest to smallest). Respond with an ordered listing of the labels, as requested. I, III, II
(I: 84%, III: 28%, II: 12%)

###

- measured on: DNA-PK(h) (Homo sapiens, UniProt P78527)
- experiment notes: Evaluation of inhibitory activity against DNA-PK (HTRF kinase assay, GST-cMyc-p53 substrate)
- Format: biochemical
- cond: compound concentration 0.1 μM; read-out: EXP_VALUE(% Inhibition) DNA-PK(h) 0.1 μM
endpoint name: inhibition at 0.1 µM (%)

>>> df
                                   compound                               measured_on         endpoint_name  endpoint_unit  test_value
0  C[C@H](Nc1ncnc2[nH]ccc(=O)c12)c1c(Cl)c2cccc(N3CCN(c4ccncc4)CC3)c2c(=O)n1-c1ccccc1 [Example 9]  DNA-PK(h) (Homo sapiens, UniProt P78527)  inhibition at 0.1 µM              %          92
1  Cc1c[nH]c2ccc(-c3cccc4c(Cl)c([C@H](C)Nc5ncnc6[nH]ccc(=O)c56)n(-c5ccccc5)c(=O)c34)cc12 [Example 74]  DNA-PK(h) (Homo sapiens, UniProt P78527)  inhibition at 0.1 µM              %          90
2  C[C@H](Nc1ncnc2[nH]ccc(=O)c12)c1c(Cl)c2cccc(N3CC4CCCC4C3)c2c(=O)n1-c1ccccc1 (stereo partly shown) [Example 342]  DNA-PK(h) (Homo sapiens, UniProt P78527)  inhibition at 0.1 µM              %          58
3  C[C@H](Nc1ncnc2[nH]ccc(=O)c12)c1c(Cl)c2cccc(-c3nnn[nH]3)c2c(=O)n1-c1ccccc1 [Example 352]  DNA-PK(h) (Homo sapiens, UniProt P78527)  inhibition at 0.1 µM              %          76

###

- measured on: PI3K-δ (PI3K(p1108/p857) (h)) (Homo sapiens, UniProt O00329)
- Sequence (O00329 whole entry): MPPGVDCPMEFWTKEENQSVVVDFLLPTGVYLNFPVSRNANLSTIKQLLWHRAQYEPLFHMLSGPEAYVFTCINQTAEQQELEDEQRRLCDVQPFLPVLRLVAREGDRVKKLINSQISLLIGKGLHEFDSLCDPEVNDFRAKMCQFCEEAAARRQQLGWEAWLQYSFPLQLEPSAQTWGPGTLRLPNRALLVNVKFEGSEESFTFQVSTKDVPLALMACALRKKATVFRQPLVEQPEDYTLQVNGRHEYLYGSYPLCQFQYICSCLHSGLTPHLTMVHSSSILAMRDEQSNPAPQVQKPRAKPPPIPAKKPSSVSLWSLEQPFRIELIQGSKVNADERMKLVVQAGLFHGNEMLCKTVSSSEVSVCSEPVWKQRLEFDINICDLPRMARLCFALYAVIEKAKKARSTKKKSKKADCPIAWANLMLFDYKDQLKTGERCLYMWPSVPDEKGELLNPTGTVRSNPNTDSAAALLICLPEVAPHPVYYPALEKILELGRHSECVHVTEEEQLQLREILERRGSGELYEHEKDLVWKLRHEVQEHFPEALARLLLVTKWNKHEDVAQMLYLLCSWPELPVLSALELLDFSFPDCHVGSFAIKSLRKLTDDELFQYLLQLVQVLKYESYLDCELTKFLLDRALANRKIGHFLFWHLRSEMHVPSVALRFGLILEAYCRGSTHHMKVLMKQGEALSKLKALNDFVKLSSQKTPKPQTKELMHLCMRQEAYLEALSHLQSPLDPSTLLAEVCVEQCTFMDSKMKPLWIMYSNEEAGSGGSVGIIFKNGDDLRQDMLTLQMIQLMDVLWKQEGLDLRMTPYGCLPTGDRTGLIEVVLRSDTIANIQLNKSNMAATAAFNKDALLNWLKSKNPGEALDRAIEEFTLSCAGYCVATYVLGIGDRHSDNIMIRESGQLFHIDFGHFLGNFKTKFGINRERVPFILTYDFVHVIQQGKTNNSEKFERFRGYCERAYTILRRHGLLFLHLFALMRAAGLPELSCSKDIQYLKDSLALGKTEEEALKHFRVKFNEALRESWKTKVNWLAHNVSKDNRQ
- Sequence (P27986 whole entry partner): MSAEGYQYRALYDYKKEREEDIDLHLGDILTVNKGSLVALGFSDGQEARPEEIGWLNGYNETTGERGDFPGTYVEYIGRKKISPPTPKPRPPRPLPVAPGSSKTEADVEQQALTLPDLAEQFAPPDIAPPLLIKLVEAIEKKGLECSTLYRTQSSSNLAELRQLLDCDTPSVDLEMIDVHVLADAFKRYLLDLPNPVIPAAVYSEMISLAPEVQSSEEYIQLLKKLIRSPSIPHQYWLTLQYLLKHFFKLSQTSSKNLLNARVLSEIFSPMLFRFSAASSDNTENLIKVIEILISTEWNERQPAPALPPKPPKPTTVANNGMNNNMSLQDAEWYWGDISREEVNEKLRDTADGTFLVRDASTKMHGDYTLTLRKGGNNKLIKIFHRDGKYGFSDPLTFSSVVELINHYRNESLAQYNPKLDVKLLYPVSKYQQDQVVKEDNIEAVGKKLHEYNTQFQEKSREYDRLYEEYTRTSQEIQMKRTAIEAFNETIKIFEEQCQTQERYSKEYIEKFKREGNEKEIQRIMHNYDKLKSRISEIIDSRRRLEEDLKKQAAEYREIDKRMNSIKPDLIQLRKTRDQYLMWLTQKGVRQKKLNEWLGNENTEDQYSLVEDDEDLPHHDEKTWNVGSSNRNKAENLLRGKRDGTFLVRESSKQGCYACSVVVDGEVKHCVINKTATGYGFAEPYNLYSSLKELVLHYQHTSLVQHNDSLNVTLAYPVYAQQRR
- experiment notes: Evaluation of inhibitory activity against PI3K-δ (HTRF kinase assay)
- Assay type: biochemical
- cond: compound concentration 0.01 μM; read-out: EXP_VALUE(% Inhibition) PI3K-δ 0.01 μM
endpoint name: inhibition at 0.01 µM (%)

Example compounds with recorded inhibition at 0.01 µM:
>>> print(df.to_string())
                           structure_smiles                               measured_on  endpoint_unit  test_value
0  C[C@H](Nc1ncnc2[nH]ccc(=O)c12)c1c(Cl)c2cccc(-c3ccco3)c2c(=O)n1-c1ccccc1  PI3K-δ (PI3K(p1108/p857) (h)) (Homo sapiens, UniProt O00329)              %          82
1  C[C@H](Nc1ncnc2[nH]ccc(=O)c12)c1c(Cl)c2cccc(C=O)c2c(=O)n1-c1ccccc1  PI3K-δ (PI3K(p1108/p857) (h)) (Homo sapiens, UniProt O00329)              %          60
2  C[C@H](Nc1ncnc2[nH]ccc(=O)c12)c1c(Cl)c2cccc(-c3ccc4ncccc4c3)c2c(=O)n1-c1ccccc1  PI3K-δ (PI3K(p1108/p857) (h)) (Homo sapiens, UniProt O00329)              %          84
3  CC(C)NC(=O)c1ccc(-c2cccc3c(Cl)c([C@H](C)Nc4ncnc5[nH]ccc(=O)c45)n(-c4ccccc4)c(=O)c23)cc1  PI3K-δ (PI3K(p1108/p857) (h)) (Homo sapiens, UniProt O00329)              %          72
4  C[C@H](Nc1ncnc2[nH]ccc(=O)c12)c1c(Cl)c2cccc(-c3cnc(N4CCCCC4)nc3)c2c(=O)n1-c1ccccc1  PI3K-δ (PI3K(p1108/p857) (h)) (Homo sapiens, UniProt O00329)              %          57
5  COc1cc(-c2cccc3c(Cl)c([C@H](C)Nc4ncnc5[nH]ccc(=O)c45)n(-c4ccccc4)c(=O)c23)cc(OC)c1OC  PI3K-δ (PI3K(p1108/p857) (h)) (Homo sapiens, UniProt O00329)              %          91

I = C[C@H](Nc1ncnc2[nH]ccc(=O)c12)c1c(Cl)c2cccc(-c3ccc(N(C)C)nc3)c2c(=O)n1-c1ccccc1
II = CNC(=O)c1cccc2c(Cl)c([C@H](C)Nc3ncnc4[nH]ccc(=O)c34)n(-c3ccccc3)c(=O)c12
III = C[C@H](Nc1ncnc2[nH]ccc(=O)c12)c1c(Cl)c2cccc(-c3ccc(C4CC4)nc3)c2c(=O)n1-c1ccccc1
IV = C[C@H](Nc1ncnc2[nH]ccc(=O)c12)c1c(Cl)c2cccc(N3CCN(c4ccccc4)CC3)c2c(=O)n1-c1ccccc1
Rank by inhibition at 0.01 µM (largest to smallest). Respond with an ordered listing of the labels, as requested. II, I, III, IV
(II: 99%, I: 67%, III: 42%, IV: 17%)

###

- measured on: DNA-PK(h) (Homo sapiens)
- experiment notes: Evaluation of inhibitory activity against DNA-PK (HTRF kinase assay, GST-cMyc-p53 substrate)
- Assay type: biochemical
- cond: compound at 0.1 μM; read-out: EXP_VALUE(% Inhibition) DNA-PK(h) 0.1 μM
endpoint name: inhibition at 0.1 µM (%)

Example compounds with recorded inhibition at 0.1 µM:
>>> print(df.to_string())
                           structure_smiles  test_value
0  CCC[S@@](=N)(=O)c1cccc2c(Cl)c([C@H](C)Nc3ncnc4[nH]ccc(=O)c34)n(-c3ccccc3)c(=O)c12          28
1  CCOc1ncc(-c2cccc3cc([C@H](C)Nc4ncnc5[nH]ccc(=O)c45)n(-c4ccccc4)c(=O)c23)cn1          40
2  CCC[S@@+]([O-])c1cccc2c(Cl)c([C@H](C)Nc3ncnc4[nH]ccc(=O)c34)n(-c3ccccc3)c(=O)c12          34

P = C[C@H](Nc1ncnc2[nH]ccc(=O)c12)c1c(Cl)c2cccc(S(=O)(=O)c3ccccn3)c2c(=O)n1-c1ccccc1
Q = CC[S@](=N)(=O)c1cccc2c(Cl)c([C@H](C)Nc3ncnc4[nH]ccc(=O)c34)n(-c3ccccc3)c(=O)c12
So which one has the bigger inhibition at 0.1 µM here, P or Q ? Mark your selection by writing its label. P
(P: 32%, Q: 9%)

###

- measured on: PI3K-δ (PI3K(p1108/p857) (h)) (Homo sapiens, UniProt O00329)
- experiment notes: Evaluation of inhibitory activity against PI3K-δ (HTRF kinase assay)
- Type: biochemical
- cond: compound concentration 0.1 μM; read-out: EXP_VALUE(% Inhibition) PI3K-δ 0.1 μM
endpoint name: inhibition at 0.1 µM (%)

Example molecules with recorded inhibition at 0.1 µM:
In [3]: df
Out[3]:
                           structure_smiles         endpoint_name  test_value
0  Cc1ncc(-c2cccc3c(Cl)c([C@H](C)Nc4ncnc5[nH]ccc(=O)c45)n(-c4ccccc4)c(=O)c23)cn1  inhibition at 0.1 µM          93
1  C[C@H](Nc1ncnc2[nH]ccc(=O)c12)c1c(Cl)c2cccc(C(=O)O)c2c(=O)n1-c1ccccc1  inhibition at 0.1 µM         102
2  C[C@H](Nc1ncnc2[nH]ccc(=O)c12)c1c(Cl)c2cccc(-c3cc(F)cc(F)c3)c2c(=O)n1-c1ccccc1  inhibition at 0.1 µM          99
3  C[C@H](Nc1ncnc2[nH]ccc(=O)c12)c1cc2cccc(-c3ccc(N(C)C)cc3)c2c(=O)n1-c1ccccc1  inhibition at 0.1 µM          95
4  C[C@H](Nc1ncnc2[nH]ccc(=O)c12)c1cc2cccc(-c3nc4ccccc4o3)c2c(=O)n1-c1ccccc1  inhibition at 0.1 µM          65

A = C[C@H](Nc1ncnc2[nH]ccc(=O)c12)c1c(Cl)c2cccc(C#Cc3cnn(C)c3)c2c(=O)n1-c1ccccc1
B = Cc1c(F)cccc1-c1cccc2c(Cl)c([C@H](C)Nc3ncnc4[nH]ccc(=O)c34)n(-c3ccccc3)c(=O)c12
C = C[C@H](Nc1ncnc2[nH]ccc(=O)c12)c1c(Cl)c2cccc(N3C[C@]4(C)C[C@H]3CC(C)(C)C4)c2c(=O)n1-c1ccccc1
Rank by inhibition at 0.1 µM (largest to smallest). Respond with an ordered listing of the labels, as requested. B, A, C
